From: paper PMC3409115

system: T. cruzi-infected skeletal myoblasts (intracellular amastigotes); experiment: Hit cross-validation in T. cruzi-infected mammalian cells (image-based assay); assay type: cell-based, Trypanosoma cruzi; settings: T. cruzi-infected myoblasts, 72 h treatment; read-out: EC50 against T. cruzi parasites in HTS assay used to rank order the hits
recorded endpoint: pEC50
// returns pEC50 (minus log10 of molar concentration), number only

Asked: T. cruzi-infected skeletal myoblasts (intracellular amastigotes) / pEC50 / COC(=O)C1=C(N)Oc2cc(C)n(CCc3ccc(OC)c(OC)c3)c(=O)c2C1c1cccnc1 (stereo not drawn) [Compound 6] : value?
Given back: 6.21

Asked: T. cruzi-infected skeletal myoblasts (intracellular amastigotes) / pEC50 / Cc1cccc(Nc2nc(-c3ccncc3)cs2)n1 [Compound 9] : value?
Given back: 6.04

Asked: T. cruzi-infected skeletal myoblasts (intracellular amastigotes) / pEC50 / Clc1ccc(OCCCCCCn2ccnc2)cc1 [Compound 11] : value?
Given back: 6.02

* * *

biological target: T. cruzi CYP51 (Trypanosoma cruzi, UniProt Q7Z1V1); construct: had the first 21 residues upstream of K22 replaced with the fragment MAKKKKK; His6 (C); made in house; assay: HTS spectral-mode binding screen, type II difference spectra scored 0-5; conditions: spectral mode, four serial dilutions 2 µM to 12.5 µM, 2 µM CYP51
Sequence (Q7Z1V1 15-481, looked up, natural form): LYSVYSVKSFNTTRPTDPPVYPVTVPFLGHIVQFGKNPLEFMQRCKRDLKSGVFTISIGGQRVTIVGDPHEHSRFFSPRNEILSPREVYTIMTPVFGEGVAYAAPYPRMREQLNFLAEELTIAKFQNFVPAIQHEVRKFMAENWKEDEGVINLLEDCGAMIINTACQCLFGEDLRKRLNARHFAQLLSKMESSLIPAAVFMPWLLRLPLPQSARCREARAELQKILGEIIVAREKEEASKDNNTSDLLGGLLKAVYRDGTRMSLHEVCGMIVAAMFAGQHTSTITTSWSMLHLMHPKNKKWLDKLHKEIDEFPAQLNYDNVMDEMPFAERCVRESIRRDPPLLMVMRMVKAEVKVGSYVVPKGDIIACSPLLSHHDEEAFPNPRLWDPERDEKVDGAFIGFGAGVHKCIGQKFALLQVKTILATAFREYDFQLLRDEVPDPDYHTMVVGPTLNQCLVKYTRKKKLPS
recorded endpoint: HTS binding score
Simply state the number, no unit and no words.

Asked: Could you tell me which HTS binding score is on file for COc1ccc(-c2cc(C(=O)NCc3cccnc3)[nH]n2)cc1 [Compound 68] ?
Given back: 4

Asked: Could you tell me which HTS binding score is on file for CCOc1cc(S(=O)(=O)Nc2cccnc2)ccc1Cl [Compound 72] ?
Given back: 4

Asked: Could you tell me which HTS binding score is on file for Cc1[nH]c2ccccc2c1C(Nc1cccc(F)c1)c1cccnc1 (centres unmarked) [Compound 88] ?
Given back: 4

Asked: Could you tell me which HTS binding score is on file for O=C(CCCCCN1C(=O)c2cccc3cccc(c23)C1=O)NCc1cccnc1 [Compound 141] ?
Given back: 4

Asked: Could you tell me which HTS binding score is on file for COc1cccc(-c2noc(C(=O)NCCCn3ccnc3)n2)c1 [Compound 84] ?
Given back: 4

Asked: Could you tell me which HTS binding score is on file for CC1=NN(C(=O)COc2ccccc2C)C(O)(c2cccnc2)C1 (centres unmarked) [Compound 83] ?
Given back: 4

Asked: Could you tell me which HTS binding score is on file for C/C(=N\OC(=O)c1c(-c2ccccc2Cl)noc1C)c1ccncc1 [Compound 115] ?
Given back: 5

Asked: Could you tell me which HTS binding score is on file for CCCCNC(=O)c1cc(-c2ccncc2)nc2ccccc12 [Compound 63] ?
Given back: 5

Asked: Could you tell me which HTS binding score is on file for CC1=C(C(=O)OC2CCCC2)C(c2ccncc2)C2=C(O)CC(C)(C)CC2=N1 (centres unmarked) [Compound 129] ?
Given back: 4

Asked: Could you tell me which HTS binding score is on file for Cc1sc2nc(SCC(=O)NCCCn3ccnc3)nc(O)c2c1C [Compound 127] ?
Given back: 4

Asked: Could you tell me which HTS binding score is on file for Cc1c(C(=O)N2CCCCC2c2cccnc2)sc2nc3n(c(=O)c12)CCCCC3 (centres unmarked) [Compound 157] ?
Given back: 4

Asked: Could you tell me which HTS binding score is on file for COc1ccc(CNc2nc3ccccc3c3nc(-c4ccncc4)nn23)cc1 [Compound 15] ?
Given back: 5

Asked: Could you tell me which HTS binding score is on file for CCOC(=O)c1c(C)n(-c2ccc(C)cc2)c2ccc(OCC(O)Cn3ccnc3)cc12 (centres unmarked) [Compound 165] ?
Given back: 4

Asked: Could you tell me which HTS binding score is on file for N#CC1=C(N)OC2=C(C(=O)CC(c3ccccc3)C2)C1c1cccnc1 (centres unmarked) [Compound 7] ?
Given back: 3

Asked: Could you tell me which HTS binding score is on file for COc1cc(OC)cc(C(=O)Nc2ccc(Cc3ccncc3)cc2)c1 [Compound 108] ?
Given back: 4

Asked: Could you tell me which HTS binding score is on file for COc1cccc(CNCc2cccnc2)c1OCc1ccc(Cl)cc1 [Compound 120] ?
Given back: 4

Asked: Could you tell me which HTS binding score is on file for COc1ccccc1C(=O)O/N=C(\c1ccccc1)c1ccncc1 [Compound 89] ?
Given back: 4

Asked: Could you tell me which HTS binding score is on file for COc1ccc(CNc2nc3ccccc3c3nc(-c4ccncc4)nn23)cc1 [Compound 132] ?
Given back: 5

Asked: Could you tell me which HTS binding score is on file for CC(C)=CCCC1=CCC2(COC(c3cccnc3)OC2)C(C)C1 (centres unmarked) [Compound 31] ?
Given back: 2

Asked: Could you tell me which HTS binding score is on file for COc1ccc(-c2nc(CSCC(=O)NCc3cccnc3)c(C)o2)cc1 [Compound 133] ?
Given back: 4

Asked: Could you tell me which HTS binding score is on file for O=S(=O)(c1ccc(-c2csc(-c3cccnc3)n2)cc1)N1CCCC1 [Compound 121] ?
Given back: 4

Asked: Could you tell me which HTS binding score is on file for O=C(CSCc1c(Cl)cccc1Cl)NCc1cccnc1 [Compound 102] ?
Given back: 4

Asked: Could you tell me which HTS binding score is on file for Cc1cc(Cl)ccc1OCCCC(=O)NCc1ccncc1 [Compound 78] ?
Given back: 4

Asked: Could you tell me which HTS binding score is on file for O=C(CN(Cc1ccccc1)S(=O)(=O)c1ccccc1)NCc1ccncc1 [Compound 139] ?
Given back: 5

Asked: Could you tell me which HTS binding score is on file for O=C(c1ccncc1)N(c1ccc2oc3c(c2c1)CCCC3)S(=O)(=O)c1cccs1 [Compound 167] ?
Given back: 4

Asked: Could you tell me which HTS binding score is on file for Cc1[nH]c2ccccc2c1C(Nc1ccc(F)cc1)c1ccncc1 (centres unmarked) [Compound 87] ?
Given back: 4

Asked: Could you tell me which HTS binding score is on file for c1ccc(-c2cc(NCCCn3ccnc3)n3c(n2)nc2ccccc23)cc1 [Compound 119] ?
Given back: 4

Asked: Could you tell me which HTS binding score is on file for Cc1ccc2nc(NC(=O)C3CCN(S(=O)(=O)c4cccnc4)CC3)sc2c1 [Compound 152] ?
Given back: 4

Asked: Could you tell me which HTS binding score is on file for Cn1c(SCc2nc(-c3ccc(Cl)cc3)no2)nnc1-c1ccncc1 [Compound 40] ?
Given back: 5

Asked: Could you tell me which HTS binding score is on file for CC1Cc2cc(C(=O)C3=C(O)C(=O)N(Cc4cccnc4)C3c3cccs3)ccc2O1 (centres unmarked) [Compound 164] ?
Given back: 4

Asked: Could you tell me which HTS binding score is on file for O=C(Cn1ccnc1)c1ccc(Cl)cc1Cl [Compound 26] ?
Given back: 2

Asked: Could you tell me which HTS binding score is on file for COc1cc(OC)cc(-c2nc3n(n2)C(c2ccncc2)C2=C(O)CC(C)(C)CC2=N3)c1 (centres unmarked) [Compound 162] ?
Given back: 4

* * *

test system: host cell (skeletal myoblasts, bovine embryo skeletal muscle or C2C12); assay: Host cell toxicity in the cross-validation assay; format: cell-based; details: host cells in cross-validation assay, up to 10 µM
recorded endpoint: Toxicity score (highest percentage of host cell growth inhibition)

Asked: Could you tell me which Toxicity score (highest percentage of host cell growth inhibition) is on file for CC1(C)CC(=O)C2=C(C1)c1c(ccc3ccccc13)NC2c1cccnc1 (stereo not shown) ?
Given back: 3 (3- 31-40%)

Asked: Could you tell me which Toxicity score (highest percentage of host cell growth inhibition) is on file for `O=C(NCCc1ccncc1)Nc1ccc(Cl)c(Cl)c1` ?
Given back: 1 (1-<20%)

Asked: Could you tell me which Toxicity score (highest percentage of host cell growth inhibition) is on file for `Cc1ccc2nc(NC(=O)C3CCN(S(=O)(=O)c4cccnc4)CC3)sc2c1` ?
Given back: 1 (1-<20%)

Asked: Could you tell me which Toxicity score (highest percentage of host cell growth inhibition) is on file for `N#C/C(=C\C=C\c1ccccc1)C(=O)NCc1cccnc1` ?
Given back: 1 (1-<20%)
